All figures here come from ChEMBL document CHEMBL1133111.

assaySystem: Receptor-type tyrosine-protein phosphatase alpha (Homo sapiens)
methodSummary: Inhibitory activity against protein tyrosine phosphatases alpha (PTP alpha)
Kindly supply the reported Kis values for the records listed here.
Give bare numbers, in µM.

Before answering, review these 2 worked examples.
O=S(=O)(O)c1ccc2c3c(ccc2c1)CCCC3
410
O=C(CSc1nnc(Nc2ccc(F)cc2)s1)c1ccc(Cl)cc1
57

State the recorded Kis for this entry: O=C(O)c1cc(NCn2c(S)nc3ccccc32)ccc1O 180

====

assaySystem: UniProtKB P51452
Sequence (P51452 whole entry, looked up): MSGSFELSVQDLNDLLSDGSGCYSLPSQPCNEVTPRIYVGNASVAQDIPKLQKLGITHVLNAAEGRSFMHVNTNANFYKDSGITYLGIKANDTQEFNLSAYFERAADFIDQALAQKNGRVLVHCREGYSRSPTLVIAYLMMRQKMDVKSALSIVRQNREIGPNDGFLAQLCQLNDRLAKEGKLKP
methodSummary: Inhibitory activity against human recombinant vaccinia H1 related phosphatase (Dual specificity protein phosphatase 3)
Kindly supply the reported Kis values for the records listed here.

Before answering, review these 5 worked examples.
O=C(O)c1cc(NCn2c(S)nc3ccccc32)ccc1O
> 100 µM
O=C(CSc1nnc(Nc2ccc(F)cc2)s1)c1ccc(Cl)cc1
> 100 µM
O=S(=O)(O)c1ccc2c3c(ccc2c1)CCCC3
> 1000 µM
O=C1c2ccccc2-c2cc([N+](=O)[O-])cc3cccc1c23
> 100 µM
O=S(=O)(O)Oc1c2ccccc2c2ccc3c(OS(=O)(=O)O)c4ccccc4c4ccc1c2c34
> 100 µM

Record Kis for all entries; do not skip any.
1. O=C(/C=C/c1cccc([N+](=O)[O-])c1)c1c(O)nc2cc([N+](=O)[O-])ccc2c1-c1ccccc1
2. O=C(O)c1ccc(Oc2ccc(C(=O)c3ccc4c(c3)C(=O)OC4=O)cc2)cc1

["> 100 µM", "> 1000 µM"]

====

Kindly supply the reported Kis values for the records listed here.
assaySystem: Receptor-type tyrosine-protein phosphatase alpha (Homo sapiens)
methodSummary: Inhibitory activity against protein tyrosine phosphatases alpha (PTP alpha)

O=C1c2ccccc2-c2cc([N+](=O)[O-])cc3cccc1c23
> 100 µM
O=S(=O)(O)Oc1c2ccccc2c2ccc3c(OS(=O)(=O)O)c4ccccc4c4ccc1c2c34
> 100 µM

Record Kis for all entries; do not skip any.
1. O=C(/C=C/c1cccc([N+](=O)[O-])c1)c1c(O)nc2cc([N+](=O)[O-])ccc2c1-c1ccccc1
2. O=C(O)c1ccc(Oc2ccc(C(=O)c3ccc4c(c3)C(=O)OC4=O)cc2)cc1

1. > 100 µM
2. > 1000 µM
